# assayed system: C-X-C chemokine receptor type 3 (Homo sapiens)
# Sequence (P49682 whole entry): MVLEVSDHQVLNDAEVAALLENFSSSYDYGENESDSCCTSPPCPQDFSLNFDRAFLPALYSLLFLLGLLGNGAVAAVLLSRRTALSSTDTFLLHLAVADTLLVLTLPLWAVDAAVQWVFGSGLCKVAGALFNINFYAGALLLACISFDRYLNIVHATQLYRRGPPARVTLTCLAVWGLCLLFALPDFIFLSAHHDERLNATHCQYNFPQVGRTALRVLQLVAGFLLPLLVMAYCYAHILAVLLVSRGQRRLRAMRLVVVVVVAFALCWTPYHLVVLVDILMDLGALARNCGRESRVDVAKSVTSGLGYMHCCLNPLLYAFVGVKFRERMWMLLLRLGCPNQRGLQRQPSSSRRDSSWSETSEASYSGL
# method: Displacement of [125I]-IP-10 from CXCR3
pIC50: −log10 of the molar value.
experimental readout: pIC50

Below: 5 molecules and their reported pIC50.
CCOc1ccc(-n2c([C@@H](C)N(Cc3ccc[n+]([O-])c3)C(=O)Cc3ccc(OC(F)(F)F)cc3)nc3ncccc3c2=O)cc1; 8.15
CCS(=O)(=O)CCN(C(=O)Cc1ccc(C(F)(F)F)c(F)c1)[C@H](C)c1nc2ncccc2c(=O)n1-c1ccc(Cl)cc1; 8.15
C[C@H](c1nc2ncccc2c(=O)n1-c1ccc(C#N)cc1)N(CC1CCS(=O)(=O)CC1)C(=O)Cc1ccc(C(F)(F)F)c(F)c1; 8.15
CCS(=O)(=O)CCN(C(=O)Cc1ccc(F)c(C(F)(F)F)c1)[C@H](C)c1nc2ncccc2c(=O)n1-c1ccc(Cl)cc1; 8.22
CCS(=O)(=O)CCN(C(=O)Cc1ccc(C(F)(F)F)c(F)c1)[C@H](C)c1nc2ncccc2c(=O)n1-c1ccc(F)cc1; 7.33

(1) CCS(=O)(=O)CCN(C(=O)Cc1ccc(F)c(C(F)(F)F)c1)[C@H](C)c1nc2ncccc2c(=O)n1-c1ccc(F)cc1
(2) C[C@H](c1nc2ncccc2c(=O)n1-c1ccc(F)cc1)N(CC1CCS(=O)(=O)CC1)C(=O)Cc1ccc(C(F)(F)F)c(F)c1
Query: # min-compare on pIC50 between 1 and 2 Which one? Tell me its label.
Result: 1

---

# Tested on: Blood
# method: Drug level in C57BL/6 mouse blood at 1 mg/kg, sc after 1 hr
# Assay type: ADME, organism-based
# Parameters: dose 1 mg/kg, route subcutaneous
# condition info: in vivo
experimental readout: Drug uptake (µM)

(a) C[C@H](c1nc2ncccc2c(=O)n1-c1ccc(Cl)cc1)N(CC1CCS(=O)(=O)CC1)C(=O)Cc1ccc(F)c(C(F)(F)F)c1
(b) CCOc1ccc(-n2c([C@@H](C)N(Cc3cccnc3)C(=O)Cc3ccc(OC(F)(F)F)cc3)nc3ncccc3c2=O)cc1
Query: Higher Drug uptake: a or b ? Could you answer with the label of the item you picked?
Result: a
(a: 1.3 µM, b: 0.16 µM)

---

# method: Clearance in cynomolgus monkey at 0.5 mg/kg, iv
# Assay type: ADME, organism-based, Macaca fascicularis
# Design: dose 0.5 mg/kg, route intravenous
# condition info: in vivo
experimental readout: clearance (mL/min/kg)

(A) C[C@H](c1nc2ncccc2c(=O)n1-c1ccc(C#N)cc1)N(CC1CCS(=O)(=O)CC1)C(=O)Cc1ccc(F)c(C(F)(F)F)c1
(B) C[C@H](c1nc2ncccc2c(=O)n1-c1ccc(Cl)cc1)N(CC1CCS(=O)(=O)CC1)C(=O)Cc1ccc(F)c(C(F)(F)F)c1
(C) CCS(=O)(=O)CCN(C(=O)Cc1ccc(F)c(C(F)(F)F)c1)[C@H](C)c1nc2ncccc2c(=O)n1-c1ccc(C#N)cc1
(D) C[C@H](c1nc2ncccc2c(=O)n1-c1ccc(F)cc1)N(CC1CCS(=O)(=O)CC1)C(=O)Cc1ccc(F)c(C(F)(F)F)c1
Query: Number of compounds to sort: 4. Sort criterion: clearance, ascending. Lab note: final answer is the ordered label list.
Result: B, D, C, A
(B: 2 mL/min/kg, D: 5.67 mL/min/kg, C: 12.3 mL/min/kg, A: 21.7 mL/min/kg)
